- PROTOCOL TEXT: amyloid nucleation score (Sup35N fusion, yeast selection) (log enrichment); library NNK2; higher = more nucleation; inactive = no reads after selection;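 further: zero at mode of non-aggregating sequences after 7 days selection at 30°C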
MEASUREMENT KIND: amyloid nucleation score
// no unit, no text: just the number

- SUBSTANCE: "TGTFSAKLVDTPEGYYLLSV"
  TEST VALUE: -1.01

Challenge: Sample QSVNCYNVNSDVCNKVYNDL — what was its amyloid nucleation score?
Response given: 0.716

Challenge: Sample RKPRFIACMTSPCLALC — what was its amyloid nucleation score?
Response given: 0.066

Challenge: Sample YIYRNITRLQKSCSIIISGR — what was its amyloid nucleation score?
Response given: -1.88

Challenge: Sample IWGGKDLFGGQDWNTLSYLP — what was its amyloid nucleation score?
Response given: -0.283

Challenge: Sample LARFSDMDKMKGSVGFWALK — what was its amyloid nucleation score?
Response given: -0.014

Challenge: Sample GWVCRKRWVVLYMKICMIRR — what was its amyloid nucleation score?
Response given: -0.249

Challenge: Sample VSEANVTYINFFC — what was its amyloid nucleation score?
Response given: 4.36

Challenge: Sample VYLGIFRL — what was its amyloid nucleation score?
Response given: 2.76

====

- PROTOCOL TEXT: amyloid nucleation score (Sup35N fusion, yeast selection) (log enrichment); library NNK2; higher = more nucleation; inactive = no reads after selection
MEASUREMENT KIND: amyloid nucleation score
// no unit, no text: just the number

- SUBSTANCE: "NSAVATYCVVGQVPEK"
  amyloid nucleation score: 0.883

Challenge: Sample KWFNVCIWKCAWLYIDGVGC — what was its amyloid nucleation score?
Response given: 3.95

Challenge: Sample RCFGFRVVRFVV — what was its amyloid nucleation score?
Response given: 0.014

====

Listed here: items and their measured amyloid nucleation score.
- PROTOCOL TEXT: amyloid nucleation score (Sup35N fusion, yeast selection) (log enrichment); library NNK1; higher = more nucleation; inactive = no reads after selection
// no unit, no text: just the number

- SUBSTANCE: "VMKGSRHVRDKRALYYDILR"
  amyloid nucleation score: -0.308
- SUBSTANCE: "MKSCASDPVCCPQTTRSTSL"
  amyloid nucleation score: 0.742

Challenge: Sample CSSWVMGLIFWECLKNMDKV — what was its amyloid nucleation score?
Response given: -1.39

====

- PROTOCOL TEXT: amyloid nucleation score (Sup35N fusion, yeast selection) (log enrichment); library NNK1; higher = more nucleation; inactive = no reads after selection
Entries are grouped by amyloid nucleation score into these classes: class A (below -0.2), class B (-0.2 to below 0.1), class C (0.1 or more)

- SUBSTANCE: "LRIFSKLFTSSLYNCFEGIP"
  ANSWER LABEL: "class C"
- SUBSTANCE: "VSGSVFTNMIANILSTSRYV"
  ANSWER LABEL: "class B"
- SUBSTANCE: "ARMVVCHPAGFGGAWPSRWC"
  ANSWER LABEL: "class B"
- SUBSTANCE: "QLFVRFGRSARLVIAESQKA"
  ANSWER LABEL: "class B"
- SUBSTANCE: "CASMMPDSVSVRTKSNVT"
  ANSWER LABEL: "class A"

Challenge: Any idea which band HCRFWRTFDGSNGRNIENSD is in?
Response given: class C

Challenge: Any idea which band FRHVQSMRACFLKSKYGATI is in?
Response given: class C

Challenge: Any idea which band YNYDPRFVY is in?
Response given: class A

Challenge: Any idea which band CYCFET is in?
Response given: class A
